System: HepG2
Experiment: cytotoxicity call (relative viability < 0.9)
Conditions: 10 µM
The campaign covered roughly 39,000 compounds. About 3,300 (8.5%) were called active. The list comes from a sample in which actives are over-represented; it also holds close analogues and randomly drawn compounds.
Lab note: assign the record to one of active, inactive

Smiles input | Target of assay | Label value
C[C@@H]1CN([C@@H](C)CO)C(=O)c2cc(NC(=O)Cc3ccccc3)ccc2O[C@@H]1CN(C)S(C)(=O)=O | HepG2 | inactive
O=C(C[C@@H]1CC[C@H]2[C@@H](COC[C@@H](O)CN2C(=O)Nc2ccc(Cl)cc2)O1)NCCc1ccncc1 | HepG2 | inactive
C[C@H](CO)N1C[C@H](C)[C@@H](CN(C)Cc2ccc(Oc3ccccc3)cc2)Oc2ccc(NC(=O)Nc3ccccc3)cc2CC1=O | HepG2 | inactive

Moving on to another molecule below.
Called result for `C[C@H](CO)N1C[C@H](C)[C@H](CN(C)Cc2ccc(Oc3ccccc3)cc2)Oc2ccc(NC(=O)Nc3ccc(F)cc3)cc2CC1=O`
active

Cited source: the antibiotic and cytotoxicity screens of Wong et al. (2023)
